# credit: BindingDB's records for patent US117808

Target: Protein kinase C beta type Isoform 2 (Homo sapiens, UniProt P05771)
Sequence (P05771 as listed by the source): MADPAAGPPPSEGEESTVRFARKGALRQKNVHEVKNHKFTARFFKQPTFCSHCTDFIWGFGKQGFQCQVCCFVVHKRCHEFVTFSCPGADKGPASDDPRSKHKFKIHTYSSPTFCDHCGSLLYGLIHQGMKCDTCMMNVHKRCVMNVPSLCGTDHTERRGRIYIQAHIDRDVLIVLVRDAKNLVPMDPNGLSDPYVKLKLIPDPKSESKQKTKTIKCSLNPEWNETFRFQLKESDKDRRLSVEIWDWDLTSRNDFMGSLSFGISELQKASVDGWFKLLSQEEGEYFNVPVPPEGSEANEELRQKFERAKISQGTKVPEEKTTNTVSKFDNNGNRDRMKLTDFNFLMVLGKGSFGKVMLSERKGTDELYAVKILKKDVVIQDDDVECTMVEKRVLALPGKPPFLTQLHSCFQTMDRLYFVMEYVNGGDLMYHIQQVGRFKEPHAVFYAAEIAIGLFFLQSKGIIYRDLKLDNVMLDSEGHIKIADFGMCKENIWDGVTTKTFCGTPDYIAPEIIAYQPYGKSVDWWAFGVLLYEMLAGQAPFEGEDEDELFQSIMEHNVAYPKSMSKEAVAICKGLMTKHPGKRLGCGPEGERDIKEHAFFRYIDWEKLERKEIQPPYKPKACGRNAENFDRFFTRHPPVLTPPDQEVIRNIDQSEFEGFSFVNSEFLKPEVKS
Test: Protein Kinase C beta 2 (PKCpII) Assay
Excerpt: Protein Kinase C beta 2 (PKCpII) catalyzes the production of ADP from ATP that accompanies the phosphoryl transfer to the PKC Pseudosubstrate peptide (A→S, RFARKGSLRQKNV). […]
endpoint_name: Ki (nM)
Numbers only here, please. The scale is nM.

For the compound Cc1ncc(F)c(Nc2n[nH]c3c2CN(C(=O)N2C[C@@H](C)N(C)C[C@@H]2C)C3(C)C)n1 , the measured Ki on Protein kinase C beta type Isoform 2 (Homo sapiens, UniProt P05771) was 2.63
